molecular target: DAPK2 (human) (UniProt Q9UIK4); assay: radiometric filter-binding kinase assay, Kinase HotSpot; conditions: compound 0.5 µM; ATP 10 µM
Sequence (Q9UIK4 whole entry, looked up): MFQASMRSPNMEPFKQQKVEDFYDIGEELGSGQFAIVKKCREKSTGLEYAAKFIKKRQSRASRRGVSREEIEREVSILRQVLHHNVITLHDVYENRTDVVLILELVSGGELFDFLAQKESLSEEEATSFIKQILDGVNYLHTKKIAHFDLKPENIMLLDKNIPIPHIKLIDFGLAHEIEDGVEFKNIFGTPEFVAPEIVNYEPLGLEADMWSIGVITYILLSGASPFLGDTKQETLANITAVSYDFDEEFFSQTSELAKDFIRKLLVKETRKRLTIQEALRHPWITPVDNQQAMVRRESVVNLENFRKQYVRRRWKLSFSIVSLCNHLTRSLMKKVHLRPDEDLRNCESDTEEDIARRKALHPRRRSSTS
Documented residual activity across a set of molecules
measurement name: residual activity

>>> result("O=c1cc(N2CCNCC2)oc2c(-c3ccccc3)cccc12")
"94%"
>>> result("O=C(NC(NC(=S)Nc1ccc(F)c([N+](=O)[O-])c1)C(Cl)(Cl)Cl)C(c1ccccc1)c1ccccc1 (stereo not drawn)")
"103%"
>>> result("O=C(Nc1ccc(Cl)cc1)c1ccccc1NCc1ccncc1")
"98.4%"
>>> result("O=c1cc(-c2cccc3c2Sc2ccccc2S3)oc(N2CCOCC2)c1")
"98.8%"
>>> result("COc1cc2nccc(Oc3ccc(NC(=S)NC(=O)c4ccccc4C)cc3)c2cc1OC")
"78.7%"
>>> result("CC(C)[C@H](CO)Nc1nc(Nc2cccc(Cl)c2)c2ncn(C(C)C)c2n1")
"111%"
>>> result("COc1cc2ncnc(Nc3ccc(F)c(Cl)c3)c2cc1OCCCN1CCOCC1")
"93.2%"
>>> result("NC(=O)c1ccc(N(C(N)=O)c2c(F)cccc2F)nc1-c1ccc(F)cc1F")
"86.8%"
>>> result("Nc1nc(Nc2ccc(S(N)(=O)=O)cc2)nn1C(=S)Nc1c(F)cccc1F")
"83%"
>>> result("O=C1Nc2cc(Br)ccc2/C1=C1/Nc2ccccc2/C1=N\\O")
"91%"
>>> result("CC(C)n1cnc2c(Nc3cccc(Cl)c3)nc(NCCO)nc21")
"92.8%"
>>> result("COc1ccc(-c2cnc3c(-c4ccsc4)cnn3c2)cc1")
"87.4%"
>>> result("Nc1n[nH]c2nnc(-c3c(-c4ccccc4)nn4ccccc34)cc12")
"103%"

----------
target: TGFBR1 (human); assay: radiometric filter-binding kinase assay, Kinase HotSpot; details: compound 0.5 µM; ATP 10 µM
measurement name: residual activity (%)

>>> result_number("O=c1cc(N2CCNCC2)oc2c(-c3ccccc3)cccc12")
97.3
>>> result_number("O=C(NC(NC(=S)Nc1ccc(F)c([N+](=O)[O-])c1)C(Cl)(Cl)Cl)C(c1ccccc1)c1ccccc1 (stereo not given)")
92.6
>>> result_number("CC(C)n1cnc2c(Nc3cccc(Cl)c3)nc(NCCO)nc21")
97.7
>>> result_number("Nc1nc(Nc2ccc(S(N)(=O)=O)cc2)nn1C(=O)c1c(F)cccc1F")
104
>>> result_number("O=C1Nc2cc(Br)ccc2/C1=C1/Nc2ccccc2/C1=N\\O")
99.8

----------
target: LTK (human) (UniProt P29376); assay: radiometric filter-binding kinase assay, Kinase HotSpot; settings: compound 0.5 µM; ATP 10 µM
Sequence (P29376 whole entry, looked up): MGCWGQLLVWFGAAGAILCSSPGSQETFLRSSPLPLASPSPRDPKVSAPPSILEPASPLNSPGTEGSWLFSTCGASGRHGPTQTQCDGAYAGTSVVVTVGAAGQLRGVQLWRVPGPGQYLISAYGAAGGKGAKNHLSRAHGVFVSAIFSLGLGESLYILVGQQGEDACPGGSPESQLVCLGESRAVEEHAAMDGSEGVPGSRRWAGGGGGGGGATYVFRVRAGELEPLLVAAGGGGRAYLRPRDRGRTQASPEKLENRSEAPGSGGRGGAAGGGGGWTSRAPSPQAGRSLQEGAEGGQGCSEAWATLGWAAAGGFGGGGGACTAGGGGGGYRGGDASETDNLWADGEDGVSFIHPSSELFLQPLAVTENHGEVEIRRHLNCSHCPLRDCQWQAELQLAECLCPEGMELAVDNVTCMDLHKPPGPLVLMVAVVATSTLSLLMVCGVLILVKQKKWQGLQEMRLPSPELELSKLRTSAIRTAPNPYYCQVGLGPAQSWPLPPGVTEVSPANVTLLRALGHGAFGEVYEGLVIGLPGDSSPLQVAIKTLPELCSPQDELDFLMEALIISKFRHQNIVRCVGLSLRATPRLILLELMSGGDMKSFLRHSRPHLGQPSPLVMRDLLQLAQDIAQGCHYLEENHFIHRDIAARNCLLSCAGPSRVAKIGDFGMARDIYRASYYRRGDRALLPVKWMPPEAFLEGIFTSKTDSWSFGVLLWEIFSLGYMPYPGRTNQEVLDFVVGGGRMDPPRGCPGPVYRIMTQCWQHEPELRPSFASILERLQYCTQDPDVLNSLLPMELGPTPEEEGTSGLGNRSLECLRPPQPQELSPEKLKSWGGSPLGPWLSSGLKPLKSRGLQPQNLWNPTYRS
Documented residual activity across a set of compounds
measurement name: residual activity

>>> result("O=C1Nc2ccccc2/C1=C\\c1c(Cl)[nH]c2ccccc12")
"95.1%"
>>> result("Clc1ccc(Nc2nnc(Cc3ccncc3)c3ccccc23)cc1")
"105%"
>>> result("O=c1cc(N2CCNCC2)oc2c(-c3ccccc3)cccc12")
"96.9%"
>>> result("O=C(NC(NC(=S)Nc1ccc(F)c([N+](=O)[O-])c1)C(Cl)(Cl)Cl)C(c1ccccc1)c1ccccc1 (configuration not stated)")
"91.5%"
>>> result("CCCNC(=O)Nc1ccc(Oc2ncnc3cc(OC)c(OC)cc23)cc1Cl")
"95.7%"
>>> result("Nc1nc(Nc2ccc(S(N)(=O)=O)cc2)nn1C(=S)Nc1c(F)cccc1F")
"27.6%"
>>> result("C#Cc1cccc(Nc2ncnc3cc(OCCOC)c(OCCOC)cc23)c1")
"66.3%"

----------
Documented residual activity across a set of molecules
molecular target: UniProt P54756; experiment: radiometric filter-binding kinase assay, Kinase HotSpot; conditions: compound 0.5 µM; ATP 10 µM
Sequence (P54756 whole entry, looked up): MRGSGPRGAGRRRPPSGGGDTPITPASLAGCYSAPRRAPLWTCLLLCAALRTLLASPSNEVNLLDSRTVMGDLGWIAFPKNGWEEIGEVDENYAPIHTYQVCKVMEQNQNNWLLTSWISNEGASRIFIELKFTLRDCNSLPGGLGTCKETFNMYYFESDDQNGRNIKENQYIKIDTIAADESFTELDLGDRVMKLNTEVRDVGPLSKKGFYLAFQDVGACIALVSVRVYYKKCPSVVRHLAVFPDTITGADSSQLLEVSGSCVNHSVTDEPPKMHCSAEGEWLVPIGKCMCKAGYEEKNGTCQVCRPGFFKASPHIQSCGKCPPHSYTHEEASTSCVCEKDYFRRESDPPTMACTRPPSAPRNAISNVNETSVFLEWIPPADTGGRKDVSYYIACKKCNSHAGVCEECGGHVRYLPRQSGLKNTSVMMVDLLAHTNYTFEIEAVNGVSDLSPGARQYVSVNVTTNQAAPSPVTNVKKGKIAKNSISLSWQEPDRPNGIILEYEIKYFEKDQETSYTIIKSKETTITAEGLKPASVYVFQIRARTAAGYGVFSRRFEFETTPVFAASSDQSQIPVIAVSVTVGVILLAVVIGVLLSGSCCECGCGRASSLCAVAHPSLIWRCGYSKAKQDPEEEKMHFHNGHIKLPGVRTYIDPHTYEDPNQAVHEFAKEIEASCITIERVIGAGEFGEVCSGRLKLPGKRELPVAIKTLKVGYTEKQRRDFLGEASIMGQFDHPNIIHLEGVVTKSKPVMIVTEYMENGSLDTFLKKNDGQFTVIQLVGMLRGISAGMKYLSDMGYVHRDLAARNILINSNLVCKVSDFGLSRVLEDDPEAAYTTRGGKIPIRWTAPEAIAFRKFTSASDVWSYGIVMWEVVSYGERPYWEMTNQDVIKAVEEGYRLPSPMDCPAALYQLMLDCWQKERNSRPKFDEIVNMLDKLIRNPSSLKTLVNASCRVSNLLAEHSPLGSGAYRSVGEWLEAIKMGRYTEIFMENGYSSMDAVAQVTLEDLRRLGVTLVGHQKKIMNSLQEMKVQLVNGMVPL
measurement name: residual activity (%)

>>> result_number("O=C1Nc2ccccc2/C1=C\\c1c(Cl)[nH]c2ccccc12")
83.4
>>> result_number("Nc1nc(Nc2ccc(S(N)(=O)=O)cc2)nn1C(=O)c1c(F)cccc1F")
92.2
>>> result_number("Oc1ccc(-c2nc(-c3ccc(F)cc3)c(-c3ccncc3)[nH]2)cc1")
90.7
>>> result_number("Cc1ccc(NC(=O)c2ccc(CN3CCN(C)CC3)cc2)cc1Nc1nc(-c2cccnc2)cs1")
104
>>> result_number("COc1ccc(-c2cnc3c(-c4ccsc4)cnn3c2)cc1")
89.1
>>> result_number("CC(C)n1cnc2c(Nc3cccc(Cl)c3)nc(NCCO)nc21")
91.7

----------
Documented residual activity across a set of compounds
biological target: PRKCH (human) (UniProt P24723); experiment: radiometric filter-binding kinase assay, Kinase HotSpot; conditions: compound 0.5 µM; ATP 10 µM
Sequence (P24723 whole entry, looked up): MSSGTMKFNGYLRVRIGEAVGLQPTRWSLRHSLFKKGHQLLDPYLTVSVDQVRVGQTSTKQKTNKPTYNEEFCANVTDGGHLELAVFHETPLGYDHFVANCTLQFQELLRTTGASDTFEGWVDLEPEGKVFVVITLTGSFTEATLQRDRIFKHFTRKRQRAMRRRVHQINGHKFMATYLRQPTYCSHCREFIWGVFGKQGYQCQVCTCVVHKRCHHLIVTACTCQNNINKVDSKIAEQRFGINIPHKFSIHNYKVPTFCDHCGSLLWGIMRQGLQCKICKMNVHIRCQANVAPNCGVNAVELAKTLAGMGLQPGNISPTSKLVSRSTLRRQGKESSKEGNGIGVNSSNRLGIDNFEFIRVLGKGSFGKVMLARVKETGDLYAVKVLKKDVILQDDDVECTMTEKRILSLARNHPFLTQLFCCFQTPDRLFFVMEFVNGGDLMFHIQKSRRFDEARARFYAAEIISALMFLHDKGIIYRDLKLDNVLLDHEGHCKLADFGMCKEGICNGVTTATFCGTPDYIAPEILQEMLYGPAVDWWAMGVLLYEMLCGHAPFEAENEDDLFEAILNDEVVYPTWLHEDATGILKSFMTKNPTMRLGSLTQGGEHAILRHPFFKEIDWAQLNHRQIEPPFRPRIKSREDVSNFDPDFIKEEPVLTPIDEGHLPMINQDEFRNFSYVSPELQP
measurement name: residual activity (%)

>>> result_number("O=C1Cc2c([nH]c3ccc([N+](=O)[O-])cc23)-c2ccccc2N1")
96.9
>>> result_number("Cc1ccc(NC(=O)c2ccc(CN3CCN(C)CC3)cc2)cc1Nc1nc(-c2cccnc2)cs1")
102
>>> result_number("O=C1Nc2cc(Br)ccc2/C1=C1/Nc2ccccc2/C1=N\\O")
78.6
>>> result_number("C#Cc1cccc(Nc2ncnc3cc(OCCOC)c(OCCOC)cc23)c1")
116
>>> result_number("COC(=O)[C@]1(O)C[C@@H]2O[C@@]1(C)n1c3ccccc3c3c4c(c5c6ccccc6n2c5c31)C(=O)NC4")
20.5
>>> result_number("Oc1ccc(-c2nc(-c3ccc(F)cc3)c(-c3ccncc3)[nH]2)cc1")
95

----------
target: NTRK1 (human) (UniProt P04629); assay: radiometric filter-binding kinase assay, Kinase HotSpot; conditions: compound 0.5 µM; ATP 10 µM
Sequence (P04629 whole entry, looked up): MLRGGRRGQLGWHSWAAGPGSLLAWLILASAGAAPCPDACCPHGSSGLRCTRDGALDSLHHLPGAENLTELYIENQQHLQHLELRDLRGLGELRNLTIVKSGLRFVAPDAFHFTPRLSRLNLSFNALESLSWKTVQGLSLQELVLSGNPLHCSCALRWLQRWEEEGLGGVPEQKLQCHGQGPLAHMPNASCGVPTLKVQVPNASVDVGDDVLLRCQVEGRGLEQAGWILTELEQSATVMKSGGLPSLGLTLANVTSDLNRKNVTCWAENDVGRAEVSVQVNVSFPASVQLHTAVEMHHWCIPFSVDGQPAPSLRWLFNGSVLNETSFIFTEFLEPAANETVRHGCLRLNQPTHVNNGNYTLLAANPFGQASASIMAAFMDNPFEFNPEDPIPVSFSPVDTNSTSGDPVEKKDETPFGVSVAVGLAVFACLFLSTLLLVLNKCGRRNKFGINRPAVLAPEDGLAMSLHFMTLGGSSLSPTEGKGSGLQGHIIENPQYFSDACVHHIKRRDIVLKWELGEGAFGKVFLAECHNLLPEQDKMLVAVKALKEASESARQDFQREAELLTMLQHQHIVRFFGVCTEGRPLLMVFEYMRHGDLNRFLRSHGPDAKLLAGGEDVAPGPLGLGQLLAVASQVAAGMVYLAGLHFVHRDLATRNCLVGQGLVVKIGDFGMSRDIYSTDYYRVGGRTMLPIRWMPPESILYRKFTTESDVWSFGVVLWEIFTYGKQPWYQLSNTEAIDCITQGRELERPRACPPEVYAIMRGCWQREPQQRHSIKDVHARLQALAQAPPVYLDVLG
Documented residual activity across a set of compounds
measurement name: residual activity (%)

>>> result_number("O=C(Nc1ccc(Cl)cc1)c1ccccc1NCc1ccncc1")
95.5
>>> result_number("Cc1ccc(NC(=O)c2ccc(CN3CCN(C)CC3)cc2)cc1Nc1nc(-c2cccnc2)cs1")
97.1
>>> result_number("CS(=O)c1ccc(-c2nc(-c3ccc(F)cc3)c(-c3ccncc3)[nH]2)cc1 (stereo not given)")
100
>>> result_number("CCN1/C(=C/C(C)=O)Sc2ccc(OC)cc21")
85.7
>>> result_number("Cc1cc2ncc(-c3ccccc3)nc2cc1C")
105
>>> result_number("O=C1Nc2ccccc2/C1=C\\c1c(Cl)[nH]c2ccccc12")
90.7
>>> result_number("COc1cc2ncnc(Nc3ccc(F)c(Cl)c3)c2cc1OCCCN1CCOCC1")
103
>>> result_number("Oc1ccc(-c2nc(-c3ccc(F)cc3)c(-c3ccncc3)[nH]2)cc1")
105
>>> result_number("O=C1Cc2c([nH]c3ccc([N+](=O)[O-])cc23)-c2ccccc2N1")
107
>>> result_number("O=C1Nc2cc(Br)ccc2/C1=C1/Nc2ccccc2/C1=N\\O")
34.5

----------
biological target: NEK2 (human); assay: radiometric filter-binding kinase assay, Kinase HotSpot; details: compound 0.5 µM; ATP 10 µM
Documented residual activity across a set of molecules
measurement name: residual activity (%)

>>> result_number("Oc1ccc(-c2nc(-c3ccc(F)cc3)c(-c3ccncc3)[nH]2)cc1")
101
>>> result_number("CCCNC(=O)Nc1ccc(Oc2ncnc3cc(OC)c(OC)cc23)cc1Cl")
92.3
>>> result_number("CCN1/C(=C/C(C)=O)Sc2ccc(OC)cc21")
97.6
>>> result_number("CSc1nc(-c2ccc(F)cc2)c(-c2ccnc(NC(C)c3ccccc3)c2)[nH]1 (centres undefined)")
89.9
>>> result_number("COc1cc2ncnc(Nc3ccc(F)c(Cl)c3)c2cc1OCCCN1CCOCC1")
98.4
>>> result_number("O=c1cc(N2CCNCC2)oc2c(-c3ccccc3)cccc12")
86
>>> result_number("CS(=O)c1ccc(-c2nc(-c3ccc(F)cc3)c(-c3ccncc3)[nH]2)cc1 (centres undefined)")
105
>>> result_number("O=C1Nc2ccccc2/C1=C\\c1c(Cl)[nH]c2ccccc12")
99
>>> result_number("O=C(Nc1ccc(Cl)cc1)c1ccccc1NCc1ccncc1")
88.4
>>> result_number("CC(C)n1cnc2c(Nc3cccc(Cl)c3)nc(NCCO)nc21")
97.6
>>> result_number("O=C(NC(NC(=S)Nc1ccc(F)c([N+](=O)[O-])c1)C(Cl)(Cl)Cl)C(c1ccccc1)c1ccccc1 (centres undefined)")
112
>>> result_number("CC(C)[C@H](CO)Nc1nc(Nc2cccc(Cl)c2)c2ncn(C(C)C)c2n1")
102
>>> result_number("C#Cc1cccc(Nc2ncnc3cc(OCCOC)c(OCCOC)cc23)c1")
100
>>> result_number("Cc1cc2ncc(-c3ccccc3)nc2cc1C")
75.7

----------
target: NUAK1 (human); assay: radiometric filter-binding kinase assay, Kinase HotSpot; details: compound 0.5 µM; ATP 10 µM
measurement name: residual activity (%)

>>> result_number("Nc1nc(Nc2ccc(S(N)(=O)=O)cc2)nn1C(=O)c1c(F)cccc1F")
3.29
>>> result_number("CC(C)(C)c1nc2c3ccc(F)cc3c3c(=O)[nH]ccc3c2[nH]1")
3.04
>>> result_number("CC(C)n1cnc2c(Nc3cccc(Cl)c3)nc(NCCO)nc21")
67.3
>>> result_number("COc1cc2ncnc(Nc3ccc(F)c(Cl)c3)c2cc1OCCCN1CCOCC1")
99.1
>>> result_number("O=C1Cc2c([nH]c3ccc([N+](=O)[O-])cc23)-c2ccccc2N1")
12
>>> result_number("Nc1n[nH]c2nnc(-c3c(-c4ccccc4)nn4ccccc34)cc12")
92.5
>>> result_number("Cc1ccc(NC(=O)c2ccc(CN3CCN(C)CC3)cc2)cc1Nc1nc(-c2cccnc2)cs1")
110
>>> result_number("CSc1nc(-c2ccc(F)cc2)c(-c2ccnc(NC(C)c3ccccc3)c2)[nH]1 (stereo unspecified)")
94.3
>>> result_number("O=C1Nc2ccccc2/C1=C\\c1c(Cl)[nH]c2ccccc12")
86
>>> result_number("Cc1cc2ncc(-c3ccccc3)nc2cc1C")
92.3
>>> result_number("O=C(Nc1ccc(Cl)cc1)c1ccccc1NCc1ccncc1")
96.5
